Data origin: the supplement of paper PMC11417369

Test system: PfAP2-HC AP2 domain (GST-tagged)
Assay: gcPBM binding intensity (ln(normalized median fluorescence intensity)); higher = stronger DNA binding
Whole data set: some 25,000 sequences, median “ln(normalized median fluorescence intensity)” near 9.7, cut for the highest 2% near 11. For the sample, the highest values were picked, then their nearest neighbours and some sequences at random.
Consider the following sequences; for each one, report its gcPBM binding intensity (ln).
Could you keep your reply to the number by itself?

Prompt line: I am curious: what gcPBM binding intensity (ln) value has been reported for TATATATATATAATTACACACAATGTTCTATATATA [CACACA_site3235] ?
Response line: 9.8

Prompt line: I am curious: what gcPBM binding intensity (ln) value has been reported for TACTTACATATAATAACACACAAGAAAAAAATAAAA [CACACA_site1033] ?
Response line: 9.83

Prompt line: I am curious: what gcPBM binding intensity (ln) value has been reported for ACACATAAATGTATATATATATAAATATATGTATGT [CACACA_negctrl_site1532] ?
Response line: 9.82

Prompt line: I am curious: what gcPBM binding intensity (ln) value has been reported for AAATTGGGGCTTGTTACACACTTAGTGCGAGTTCTA [CACACA_site582] ?
Response line: 9.75

Prompt line: I am curious: what gcPBM binding intensity (ln) value has been reported for AATAAATATAGGTACACACACAAATATGTACATATC [CACACA_site6976] ?
Response line: 10.2
